Recorded pEC50 values for a group of binders are listed next.
Assay Target: T1, human TSLP recombinant protein (human, UniProt Q969D9 29-159, biotinylated in the blocking and cell-binding assays (sites not given))
T1 construct: also called biotinylated human TSLP protein
Assay Procedure: ELISA on coated human TSLP;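 also: binding detected by TMB colour development for 10 min at 37 °C, then absorbance measured at 450 nm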
Value format note: pEC50 is -log10 of concentration (mol/L); just state the number.

Ab26 (antibody, V domains shown, Humanized; also called h39G5VHv10/h71G4VKv1; h39G5VHv10/h71G4VKv1 hIgG1) VH: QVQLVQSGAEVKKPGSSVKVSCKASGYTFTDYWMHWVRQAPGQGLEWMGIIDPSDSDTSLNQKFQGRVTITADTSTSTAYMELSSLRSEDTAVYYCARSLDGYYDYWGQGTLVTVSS VL: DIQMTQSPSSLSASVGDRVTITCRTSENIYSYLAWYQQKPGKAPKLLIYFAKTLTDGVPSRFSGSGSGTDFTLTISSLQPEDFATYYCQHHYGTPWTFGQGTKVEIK : 9.74
Ab9 (antibody, V domains shown, Humanized; also called h39G5VHv9/h39G5VKv1) VH: EVQLVQSGAEVKKPGESLKISCKASGYTFTDYWMHWVRQMPGKGLEWMGTIDNSDSDTSLNQSFQGHVTLSVDKSSTTAYLQWSSLKASDTAMYYCARSLDGYYDYWGQGTLVTVSS VL: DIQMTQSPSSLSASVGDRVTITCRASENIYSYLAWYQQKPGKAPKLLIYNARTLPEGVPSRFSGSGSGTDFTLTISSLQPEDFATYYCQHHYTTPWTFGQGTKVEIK : 8.52

Query block: I'd like to know its pEC50. The binder in question is Ab11 (antibody, V domains shown, Humanized; also called h39G5VHv11/h39G5VKv1) VH: QVQLVQSGAEVKKPGSSVKVSCKASGYTFTDYWMHWVRQAPGQGLEWMGTIDNSDSDTSLNQKFQGRVTITADTSTSTAYMELSSLRSEDTAVYYCARSLDGYYDYWGQGTLVTVSS VL: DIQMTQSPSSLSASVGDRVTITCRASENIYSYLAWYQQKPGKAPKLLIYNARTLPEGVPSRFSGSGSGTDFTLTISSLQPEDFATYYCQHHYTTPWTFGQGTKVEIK
Result block: 7.44
